B1: Arabidopsis thaliana AtSLY1 (yeast bait fusion) [Arabidopsis thaliana] / A. thaliana GAI (yeast prey fusion) [Arabidopsis thaliana] (parent complex)
chain 1: MKRSTTDSDLAGDAHNETNKKMKSTEEEEIGFSNLDENLVYEVLKHVDAKTLAMSSCVSKIWHKTAQDERLWELICTRHWTNIGCGQNQLRSVVLALGGFRRLHSLYLWPLSKPNPRARFGKDELKLTLSLLSIRYYEKMSFTKRPLPESK
chain 2: MKRDHHHHHHQDKKTMMMNEEDDGNGMDELLAVLGYKVRSSEMADVAQKLEQLEVMMSNVQEDDLSQLATETVHYNPAELYTWLDSMLTDLNPPSSNAEYDLKAIPGDAILNQFAIDSASSSNQGGGGDTYTTNKRLKCSNGVVETTTATAESTRHVVLVDSQENGVRLVHALLACAEAVQKENLTVAEALVKQIGFLAVSQIGAMRKVATYFAEALARRIYRLSPSQSPIDHSLSDTLQMHFYETCPYLKFAHFTANQAILEAFQGKKRVHVIDFSMSQGLQWPALMQALALRPGGPPVFRLTGIGPPAPDNFDYLHEVGCKLAHLAEAIHVEFEYRGFVANTLADLDASMLELRPSEIESVAVNSVFELHKLLGRPGAIDKVLGVVNQIKPEIFTVVEQESNHNSPIFLDRFTESLHYYSTLFDSLEGVPSGQDKVMSEVYLGKQICNVVACDGPDRVERHETLSQWRNRFGSAGFAAAHIGSNAFKQASMLLALFNGGEGYRVEESDGCLMLGWHTRPLIATSAWKLSTN

Variants of: B1
Test: yeast 2-hybrid; parent: 0.3; read off a plot
RESULT TYPE: response

Use the examples below as a reference point.
Identify response associated with the variant chain 1 T128S
~44 β-galactosidase units

Identify response associated with the variant chain 1 K126E
~19 β-galactosidase units

Identify response associated with the variant chain 1 K126T
~24 β-galactosidase units

Identify response associated with the variant chain 1 E138K
~15 β-galactosidase units

Identify response associated with the variant chain 1 P114L
~37 β-galactosidase units

Identify response associated with the variant chain 1 K126N
~51 β-galactosidase units

Identify response associated with the variant chain 1 P114S
~41 β-galactosidase units

Identify response associated with the variant chain 1 H104Y
~120 β-galactosidase units

Now turn to the next variant.
Identify response associated with the variant chain 1 T128A
~86 β-galactosidase units

The reported measurements were obtained from paper PMC10724065.
